Biological target: OsSMF1 (Oryza sativa, UniProt Q6ZLB0 1-436)
Sequence: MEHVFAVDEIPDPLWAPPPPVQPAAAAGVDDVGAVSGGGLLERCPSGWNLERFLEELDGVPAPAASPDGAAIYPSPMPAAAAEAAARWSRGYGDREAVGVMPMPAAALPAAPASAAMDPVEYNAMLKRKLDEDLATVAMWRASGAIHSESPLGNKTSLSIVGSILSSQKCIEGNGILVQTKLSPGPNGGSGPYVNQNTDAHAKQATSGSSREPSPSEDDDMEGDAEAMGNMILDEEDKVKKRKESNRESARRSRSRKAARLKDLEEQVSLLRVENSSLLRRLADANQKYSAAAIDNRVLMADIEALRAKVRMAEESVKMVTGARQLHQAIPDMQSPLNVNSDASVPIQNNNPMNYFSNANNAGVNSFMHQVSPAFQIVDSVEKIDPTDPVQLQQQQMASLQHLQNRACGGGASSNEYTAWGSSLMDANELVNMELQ
Test: protein-binding microarray (RPBM); PBS, 2% BSA, 51.3 ng/ul salmon testes DNA, 50 uM zinc acetate, 200 nM TF, 25 C, 1 h; high values mean tight binding
Conditions: protein: recombinant; tags: N-terminal polyhistidine and DsRed monomer fusion (pET32a); chain copies: 2; label: CyDye5-dUTP incorporated in the synthesized complementary strand; 3' TTTTT single-stranded linker to array surface; dsDNA, one strand shown
Over roughly 39,000 sequences, “fluorescence intensity (a.u.)” has its median near 4,300; the highest 2% begin near 39,000. The sample holds the highest values, similar sequences and a random draw of the others, so the mix is not that of the screen.
experimental endpoint: binding signal

[
  {
    "seq": "CTTTCCCTATCTTTCTCCTCATCATATGTGTCATGATGCACGGAGTCACCTAGTGCAG",
    "value measured": "9020 fluorescence intensity (a.u.)"
  },
  {
    "seq": "ATCTTCTTCTTCATCGCTGTGCAGCTACACACTCTCACTGCGGAGTCACCTAGTGCAG",
    "value measured": "3180 fluorescence intensity (a.u.)"
  },
  {
    "seq": "CCCTGGGTGGTTTTGGAGGTGGTTTTGGTTGACGTGGCGCCGGAGTCACCTAGTGCAG",
    "value measured": "21400 fluorescence intensity (a.u.)"
  },
  {
    "seq": "TGTACCTGAAACTATTGTTATGTCCAGGTCAGGAGCAGTGCGGAGTCACCTAGTGCAG",
    "value measured": "3360 fluorescence intensity (a.u.)"
  },
  {
    "seq": "CAACAATACAGTTATTGGTAATTACAAGCTACTAGTATACCGGAGTCACCTAGTGCAG",
    "value measured": "18600 fluorescence intensity (a.u.)"
  },
  {
    "seq": "AAGTCTGCAGTTGCACTGGGAGTTGACAAAGAAGATGACGCGGAGTCACCTAGTGCAG",
    "value measured": "3550 fluorescence intensity (a.u.)"
  },
  {
    "seq": "GTCAGGTGGCGGCGGCGGCGGTGGTGGCGGTGGAGGTGGACGGAGTCACCTAGTGCAG",
    "value measured": "5570 fluorescence intensity (a.u.)"
  },
  {
    "seq": "CAGGAATTGAACTATTAAGATCCATTATGTTGCTCTAAAACGGAGTCACCTAGTGCAG",
    "value measured": "3310 fluorescence intensity (a.u.)"
  },
  {
    "seq": "GATTCGTTGAATACCGTCATTATTGGTGGGTTATCATCATCGGAGTCACCTAGTGCAG",
    "value measured": "3490 fluorescence intensity (a.u.)"
  },
  {
    "seq": "CATAATTTTAGGTATCGCTAGGATTTAATTTACACTGTAGCGGAGTCACCTAGTGCAG",
    "value measured": "3370 fluorescence intensity (a.u.)"
  },
  {
    "seq": "AGAATTCCGTGATACGCGCATACGCGTCGACAAGAGAAATCGGAGTCACCTAGTGCAG",
    "value measured": "3280 fluorescence intensity (a.u.)"
  },
  {
    "seq": "GTATCCATTCCTGCAAATCCAAGTTGGCAATTCCGAGGGCCGGAGTCACCTAGTGCAG",
    "value measured": "3340 fluorescence intensity (a.u.)"
  },
  {
    "seq": "CTTGTTTCACCTGTCATACACACGTTACGTCTTAGAGTCCCGGAGTCACCTAGTGCAG",
    "value measured": "5140 fluorescence intensity (a.u.)"
  },
  {
    "seq": "ACATCCTATCCCGTGCATTGAATCAGCATTGTACAGCAAACGGAGTCACCTAGTGCAG",
    "value measured": "3370 fluorescence intensity (a.u.)"
  }
]
